test: modulators of S6 phosphorylation in cells, primary screen, cell-based, A549, cytoblot, luminescence, serum-stimulated (AID 1158); conditions: A549 phospho-S6 cytoblot, 5 h, higher = more signal;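 also: serum-stimulated A549 lung adenocarcinoma cells; signal is phosphorylated S6 detected by cytoblot immunostaining with HRP secondary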
z-score values for the compounds below.
API doc: respond with a numeric literal and nothing else, no unit.

{"compound": "C=CCC(OC(C)=O)[C@@H]1[C@@H](N(Cc2cc3ccccc3o2)C(=O)Cc2ccc(F)cc2)c2cc(OCCCO)ccc2N1C(=O)Cc1ccc(OC)cc1 (some centres not stated)", "recorded number": -0.597}
{"compound": "CO[C@H]1O[C@H](CO)[C@@H](OC(=O)Nc2ccc3c(c2)OCO3)[C@H](OC(=O)Nc2ccccc2-c2ccccc2)[C@@H]1OC(=O)Nc1ccccc1-c1ccccc1", "recorded number": -0.0879}
{"compound": "CCN(CC)c1ccc(N2CC=CC34O[C@@H]5/C=C\\CCC(C)OC(=O)C5[C@H]3C(=O)N(CCCO)[C@@H]4C2=O)cc1 (some centres not stated)", "recorded number": -0.473}
{"compound": "O=C1CCCC=C1C(O)CCOCc1ccccc1 (configuration not stated)", "recorded number": -0.235}
{"compound": "COC(=O)[C@H](C)NC(=O)CCC1CC(OC(=O)NCCc2ccc(F)cc2)CC2(CCCC(COC(=O)NCC(c3ccccc3)c3ccccc3)O2)O1 (some centres not stated)", "recorded number": 0.71}

Quickly give me recorded z-score for CO[C@@H]1COC(=O)CC=C[C@@H](C)[C@H](OC)COC(=O)[C@H](COCc2ccccc2)NC(=O)CC=C[C@H]1C 0.354

Quickly give me recorded z-score for CO[C@@H]1COC(=O)[C@@H]2CCCN2C(=O)[C@@H](C)COC(=O)[C@H](COCc2ccccc2)NC(=O)CC=C[C@H]1C -0.493
